- Tested on: L1210 leukemia ip in BDF1 mice, survival T/C
- METHOD DESCRIPTION: NCI In Vivo Anticancer Drug Screen. Data for tumor model L1210 Leukemia (intraperitoneal) in B6D2F1 (BDF1) mice
- STUDY CONDITIONS: endpoint: mean survival time; dose: 200.0 mg/kg/injection; schedule: Q01DX001 (ip); vehicle: carboxymethylcellulose (CMC); higher = longer survival
Inconclusive results and toxic doses are left out.
Catalogue of molecules with associated T/C
EXPERIMENTAL ENDPOINT: T/C

- MOLECULE: "CCCC(CNC(=O)OCC)(CNC(=O)OCC)c1ccccc1"
  TESTED ON: "L1210 leukemia ip in BDF1 mice, survival T/C"
  EXPERIMENTAL ENDPOINT: "T/C"
  ASSAY RESULT: "94 % of control"
- MOLECULE: "Cc1c(C(=O)O)sc2ccc([N+](=O)[O-])cc12"
  TESTED ON: "L1210 leukemia ip in BDF1 mice, survival T/C"
  EXPERIMENTAL ENDPOINT: "T/C"
  ASSAY RESULT: "95 % of control"
- MOLECULE: "COc1c(OCC=C(C)C)cc2c(c1O)c(=O)c1ccccc1n2C"
  TESTED ON: "L1210 leukemia ip in BDF1 mice, survival T/C"
  EXPERIMENTAL ENDPOINT: "T/C"
  ASSAY RESULT: "93 % of control"
- MOLECULE: "Cc1cc(C)c(C(Cl)(Cl)Cl)c(C)c1Cl"
  TESTED ON: "L1210 leukemia ip in BDF1 mice, survival T/C"
  EXPERIMENTAL ENDPOINT: "T/C"
  ASSAY RESULT: "118 % of control"
- MOLECULE: "CCC1CN1P1(=O)OCC(CC)([N+](=O)[O-])CO1 (stereo unspecified)"
  TESTED ON: "L1210 leukemia ip in BDF1 mice, survival T/C"
  EXPERIMENTAL ENDPOINT: "T/C"
  ASSAY RESULT: "101 % of control"
- MOLECULE: "OCc1ccccc1CO"
  TESTED ON: "L1210 leukemia ip in BDF1 mice, survival T/C"
  EXPERIMENTAL ENDPOINT: "T/C"
  ASSAY RESULT: "95 % of control"

* * *

- System: L1210 leukemia ip in BDF1 mice, survival T/C
- METHOD DESCRIPTION: NCI In Vivo Anticancer Drug Screen. Data for tumor model L1210 Leukemia (intraperitoneal) in B6D2F1 (BDF1) mice
- STUDY CONDITIONS: endpoint: mean survival time; dose: 200.0 mg/kg/injection; schedule: Q01DX001 (ip); vehicle: carboxymethylcellulose (CMC); higher = longer survival
Toxic doses and inconclusive results are not listed.
EXPERIMENTAL ENDPOINT: T/C

- COMPOUND: "CC(C)CC(CC(C)C)=NO"
  TESTED ON: "L1210 leukemia ip in BDF1 mice, survival T/C"
  EXPERIMENTAL ENDPOINT: "T/C"
  ASSAY RESULT: "101 % of control"
- COMPOUND: "CN(C)Cc1cc2ccccc2cc1C(O)(c1ccccc1)c1ccccc1"
  TESTED ON: "L1210 leukemia ip in BDF1 mice, survival T/C"
  EXPERIMENTAL ENDPOINT: "T/C"
  ASSAY RESULT: "94 % of control"
- COMPOUND: "CS(=O)(=O)Oc1c(Cl)cc(Cl)cc1Sc1cc(Cl)cc(Cl)c1OS(C)(=O)=O"
  TESTED ON: "L1210 leukemia ip in BDF1 mice, survival T/C"
  EXPERIMENTAL ENDPOINT: "T/C"
  ASSAY RESULT: "104 % of control"
- COMPOUND: "CC1CC(=O)c2c(O)ccc(O)c21 (stereo unspecified)"
  TESTED ON: "L1210 leukemia ip in BDF1 mice, survival T/C"
  EXPERIMENTAL ENDPOINT: "T/C"
  ASSAY RESULT: "89 % of control"
- COMPOUND: "CC(C)CC(C)OB(OC(C)CC(C)C)OC(C)CC(C)C (stereo unspecified)"
  TESTED ON: "L1210 leukemia ip in BDF1 mice, survival T/C"
  EXPERIMENTAL ENDPOINT: "T/C"
  ASSAY RESULT: "102 % of control"
- COMPOUND: "CCC#CC(O)(C(=O)OC)c1ccccc1 (stereo unspecified)"
  TESTED ON: "L1210 leukemia ip in BDF1 mice, survival T/C"
  EXPERIMENTAL ENDPOINT: "T/C"
  ASSAY RESULT: "108 % of control"
